- STUDY_SYSTEM: activated human blood coagulation factor X (Homo sapiens, UniProt P00742)
- Construct: purchased Enzyme Research Co
- Sequence (P00742 235-488 limits assumed): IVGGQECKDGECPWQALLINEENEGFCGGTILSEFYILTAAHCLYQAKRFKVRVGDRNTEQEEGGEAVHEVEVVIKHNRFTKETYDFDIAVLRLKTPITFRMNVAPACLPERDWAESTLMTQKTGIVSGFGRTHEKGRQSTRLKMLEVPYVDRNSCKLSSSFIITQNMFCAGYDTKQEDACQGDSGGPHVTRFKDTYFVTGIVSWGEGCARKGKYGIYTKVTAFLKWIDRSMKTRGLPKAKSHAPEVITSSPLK
- Sequence (P00742 41-179 partner limits assumed): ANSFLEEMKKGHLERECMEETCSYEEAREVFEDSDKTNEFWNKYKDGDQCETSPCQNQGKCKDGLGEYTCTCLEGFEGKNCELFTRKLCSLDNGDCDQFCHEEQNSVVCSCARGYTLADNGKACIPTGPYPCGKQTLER
- TEST_METHOD_NOTES: Determination of activity of inhibiting the activated blood coagulation factor X
- Format: biochemical
- EXPERIMENTAL_CONTEXT: Table 1; negative logarithm of concentration inhibiting 50% of initial rate; Tris-HCl pH 8.4, room temperature; read-out: Activity of inhibiting activated blood coagulation factor X (pIC50) (converted)
- Experimental: 130 μl of 100 mM Tris-HCl buffer adjusted to pH 8.4 was added to 10 μl of an aqueous solution of a compound to be tested. Then 10 μl of a 0.5 unit/ml solution of activated human blood coagulation factor X (a product of Enzyme Research Co.) in Tris-HCl buffer hydrochloride of pH 8.4 was added to the resultant mixture. […] The absorbance was determined and then the initial reaction rate was determined. […]
Where a name gives a salt, the structure may show the parent alone.
OBSERVABLE: IC50 (µM)

>  <COMPOUND>
N=C(N)c1ccc(C(=O)N[C@@H](CCC(=O)O)COc2cccc(C(=N)N)c2)cc1 [Compound of Ex. 83, bistrifluoroacetate]

>  <IC50, µM>
0.158

$$$$

(P) CCOC(=O)C[C@H](COc1cccc(C(=N)N)c1)NC(=O)c1ccc(-c2ccccc2)cc1 [Compound of Ex. 54, trifluoroacetate]
(Q) CN(C)C(=O)c1ccc(C(=O)N[C@@H](COc2cccc(C(=N)N)c2)CC(=O)O)cc1 [Compound of Ex. 56, trifluoroacetate]
Q. I would appreciate it if you could say which entry, P or Q , has the lower IC50 value. When you have decided, please share the label of that item.
A. Q

* * *

- STUDY_SYSTEM: activated human blood coagulation factor X (Homo sapiens, UniProt P00742)
- Construct: purchased Enzyme Research Co
- TEST_METHOD_NOTES: Determination of activity of inhibiting the activated blood coagulation factor X
- Assay type: biochemical
- EXPERIMENTAL_CONTEXT: Table 1; negative logarithm of concentration inhibiting 50% of initial rate; Tris-HCl pH 8.4, room temperature; read-out: Activity of inhibiting activated blood coagulation factor X (pIC50) (converted)
Where a name gives a salt, the structure may show the parent alone.
OBSERVABLE: IC50 (nM)

(I) N=C(N)c1cccc(OCCNC(=O)c2ccc(C(=O)N3CCCC3)cc2)c1 [Compound of Ex. 9, trifluoroacetate]
(II) N=C(N)c1cccc(OCCNC(=O)c2ccc(/C=C/c3ccncc3)cc2)c1 [Compound of Ex. 10, bistrifluoroacetate]
Q. Sorting by IC50 in descending order, would I or II appear first? When you have decided, please share the label of that item.
A. II
(II: 100 nM, I: 20 nM)

(a) N=C(N)c1cccc(OCCNC(=O)c2ccc(N3CCCC3)cc2)c1 [Compound of Ex. 18, trifluoroacetate]
(b) N=C(N)c1ccc(C(=S)NCCOc2cccc(C(=N)N)c2)cc1 [Compound of Ex. 1, bistrifluoroacetate]
Q. I would appreciate it if you could say which entry, a or b , has the lower IC50 value. When you have decided, please share the label of that item.
A. a
(a: 50.1 nM, b: 398 nM)

* * *

- STUDY_SYSTEM: human thrombin (Homo sapiens)
- Construct: human thrombin (a product of SIGMA Co.); purchased SIGMA Co
- TEST_METHOD_NOTES: Determination of thrombin-inhibiting activity
- Format: biochemical
- EXPERIMENTAL_CONTEXT: Table 1; negative logarithm of concentration inhibiting 50% of initial rate; substrate S-2238, Tris-HCl pH 8.4; read-out: Thrombin-inhibiting activity (pIC50) (converted)
Counter-ions that a name gives are not always drawn.
OBSERVABLE: IC50 (µM)

>  <COMPOUND>
CN(C)C(=O)c1ccc(C(=O)NCCOc2cc(C(=N)N)ccc2CC(=O)C(=O)O)cc1 [Compound of Ex. 80, trifluoroacetate]

>  <UNIT_INFO>
µM

>  <REPORTED_MEASUREMENT>
39.8

$$$$

(a) N=C(N)c1ccc(NC(=O)CCCOc2cccc(C(=N)N)c2)cc1 [Compound of Ex. 67, bistrifluoroacetate]
(b) N=C(N)c1cccc(OCCNC(=O)c2ccc(C(=O)N3CCCC3)cc2)c1 [Compound of Ex. 9, trifluoroacetate]
(c) N=C(N)c1cccc(OCCNC(=O)c2ccc(/C=C/c3ccncc3)cc2)c1 [Compound of Ex. 10, bistrifluoroacetate]
Q. Returns the items ordered by IC50, from maximum to minimum. Return the labels ranked in the requested order, please.
A. a, c, b
(a: 316 µM, c: 126 µM, b: 50.1 µM)
